Target: human recombinant IL-21 (expressed in E. coli as the mature peptide); residues 30-162 of SEQ ID NO: 1 with an … (human, UniProt Q9HBE4 30-162)
Sequence (Q9HBE4 other isoform, or with tags, fused parts or gaps): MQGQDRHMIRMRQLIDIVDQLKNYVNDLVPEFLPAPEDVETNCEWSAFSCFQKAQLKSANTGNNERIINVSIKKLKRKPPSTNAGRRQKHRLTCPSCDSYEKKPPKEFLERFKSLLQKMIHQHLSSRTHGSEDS
Assay: cell-based or functional assay
ENDPOINT LABEL: IC50 (nM) in B cell proliferation assay, Donor 1
Expressed in nM, but write only the number.

Consider the following illustrative entries.
Entry mAb61 (mAb37 variant, heavy chain D62E) (antibody, human IgG4 S228P, kappa, V domains shown, Human IgG4(S241P), kappa) VH: EVQLVESGGGLVKPGGSLRLSCAASGFIFSSYSMNWVRQAPGKGLEWVSSITSGSYYIHYAESVKGRFTISRDNAKNSLYLQMNSLRAEDTAVYYCVRERGWGYYGMDVWGQGTTVTVSS VL: AIQLTQSPSSLSASVGDRVTITCRASQDIDSALAWYQQKPGKAPKILIHDASSLESGVPSRFSGSGSGTDFTLTISSLQPEDFATYYCQQFNSYPYTFGQGTKLEIKR : reported IC50 (nM) in B cell proliferation assay, Donor 1 = ?
0.22

Entry mAb65 (mAb37 variant, light chain D30E) (antibody, human IgG4 S228P, kappa, V domains shown, Human IgG4(S241P), kappa) VH: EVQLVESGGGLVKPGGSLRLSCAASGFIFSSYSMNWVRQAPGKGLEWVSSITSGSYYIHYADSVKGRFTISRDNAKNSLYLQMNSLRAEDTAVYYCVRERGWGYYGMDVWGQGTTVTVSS VL: AIQLTQSPSSLSASVGDRVTITCRASQDIESALAWYQQKPGKAPKILIHDASSLESGVPSRFSGSGSGTDFTLTISSLQPEDFATYYCQQFNSYPYTFGQGTKLEIKR : reported IC50 (nM) in B cell proliferation assay, Donor 1 = ?
0.49

Entry mAb64 (mAb37 variant, light chain Q27N) (antibody, human IgG4 S228P, kappa, V domains shown) VH: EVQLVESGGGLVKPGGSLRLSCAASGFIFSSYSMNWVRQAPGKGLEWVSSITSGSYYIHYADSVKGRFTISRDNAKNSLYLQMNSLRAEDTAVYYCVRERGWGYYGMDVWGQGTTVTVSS VL: AIQLTQSPSSLSASVGDRVTITCRASNDIDSALAWYQQKPGKAPKILIHDASSLESGVPSRFSGSGSGTDFTLTISSLQPEDFATYYCQQFNSYPYTFGQGTKLEIKR : reported IC50 (nM) in B cell proliferation assay, Donor 1 = ?
0.8

Could you now look at the following binder, please?
Entry mAb63 (mAb37 variant, light chain R24K) (antibody, human IgG4 S228P, kappa, V domains shown) VH: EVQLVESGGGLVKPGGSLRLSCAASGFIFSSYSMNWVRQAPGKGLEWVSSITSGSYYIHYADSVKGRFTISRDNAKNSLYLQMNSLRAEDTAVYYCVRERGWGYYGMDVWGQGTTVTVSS VL: AIQLTQSPSSLSASVGDRVTITCKASQDIDSALAWYQQKPGKAPKILIHDASSLESGVPSRFSGSGSGTDFTLTISSLQPEDFATYYCQQFNSYPYTFGQGTKLEIKR : reported IC50 (nM) in B cell proliferation assay, Donor 1 = ?
0.16
